This listing pairs binders with measured pIC50.
- assayedSystem: GST-MAGI-3 PDZ 2 (aa. 584-707 of SEQ ID NO:200) (human, UniProt P08515 1-218 = GST)
- Sequence (P08515 whole entry): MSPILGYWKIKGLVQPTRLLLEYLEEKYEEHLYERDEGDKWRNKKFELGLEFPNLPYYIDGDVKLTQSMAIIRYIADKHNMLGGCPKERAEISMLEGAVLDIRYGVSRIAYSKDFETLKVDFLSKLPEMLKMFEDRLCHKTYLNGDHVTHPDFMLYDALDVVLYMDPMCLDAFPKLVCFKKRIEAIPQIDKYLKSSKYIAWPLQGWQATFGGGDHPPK
- assayMethodText: competition ELISA: peptide blocks GST-PDZ binding to immobilized peptide
The quantity pIC50 is defined as the negative base-10 logarithm of the molar concentration.

>>> reportedvalue("DGICSWV (synthetic peptide)")
6.52

-- ask Tell me its pIC50 given ASKVTWV (synthetic peptide) as the entry.
-- reply 6.10
